Tested on: HCI-008 (organoid from a HER2-enriched breast cancer xenograft)
TEST DETAILS: CTG-3D luminescence at 96 h relative to day-0 seeding control (ratio to day 0); higher = more growth / less cytotoxicity; PDxO 3D drug screen (set 2), 96 h, CTG-3D normalised to day-0 seeding control.
ASSAY SETUP: 0.1 µM; days in culture: 340
MEASURED ENDPOINT: CTG-3D luminescence at 96 h
Respond with the number and no other words.

(Q) Value lookup for CTG-3D luminescence at 96 h; key = CC(=O)O[C@@]12CO[C@@H]1C[C@H](O)[C@@]1(C)C(=O)[C@H](O)C3=C(C)[C@@H](OC(=O)[C@H](O)[C@@H](NC(=O)OC(C)(C)C)c4ccccc4)C[C@@](O)([C@@H](OC(=O)c4ccccc4)[C@H]21)C3(C)C
(A) 0.976

Continuing:
(Q) # get_value(readout='CTG-3D luminescence at 96 h', item= CO[C@H]1C[C@@H]2CC[C@@H](C)[C@@](O)(O2)C(=O)C(=O)N2CCCC[C@H]2C(=O)O[C@H]([C@H](C)C[C@@H]2CC[C@@H](O)[C@H](OC)C2)CC(=O)[C@H](C)/C=C(\C)[C@@H](O)[C@@H](OC)C(=O)[C@H](C)C[C@H](C)/C=C/C=C/C=C/1C )
(A) 0.883
